Entries annotated with measured TGI
test system: SR leukemia; test: NCI tumour cell line growth inhibition, 48 h
READOUT NAME: TGI

| MOLECULE | ENDPOINT VALUE |
| --- | --- |
| C=COC(=O)N1C2CCCC(Cl)(C(C)=O)C1CC2 (stereo unspecified) | > 100 µM |
| Cc1nc2ccccc2c(/C=C/c2ccccc2)c1C(=O)/C=C/c1ccccc1 | > 100 µM |
| COc1cc(=O)oc(/C=C/C=C/C=C/C(C)=C\C2(C)OC(C)C(C)(O)C2O)c1C (stereo unspecified) | > 100 µM |
| OCCCCCNc1ccnc2cc(Cl)ccc12 | 40.8 µM |
| C(/C=C/Nc1ccc(-c2ccccc2)cc1)=Nc1ccc(-c2ccccc2)cc1 | > 100 µM |
| COC(=O)[C@H](Cc1cn(C)cn1)NC(=O)[C@@H](NC(=O)Nc1cc(C(F)(F)F)cc(C(F)(F)F)c1)C(C)(C)C | > 10 µM |
| CCOC(=O)C(=O)C(/C(=N/N(C)C)C(=O)Nc1ccc(C)cc1C)c1nc2ccccc2[nH]c1=O (stereo unspecified) | > 100 µM |
| COc1ccc(-c2c3c(nc4[nH]c(=S)[nH]c(=S)c24)CCCC3)cc1OC | > 100 µM |
| COC1C(O)CC(OC2CC(OC3CC(O[C@@H]4C(=O)c5c(cc6cc(OC7CC(OC8CC(O)C(O)C(C)O8)C(O)C(C)O7)c(C)c(O)c6c5O)CC4[C@H](OC)[C@@H](O)C(C)=O)OC(C)C3O)OC(C)C2O)OC1C (stereo partly specified) | 1.65 µM |
| CO/N=C(\C(=O)[N-][n+]1cnn(CC(=O)O)c1)c1csc(N)n1 | > 10 µM |
| CC(C)Cc1ccc(C(C)/C=C2\CCC(CN3CCCCC3)C2=O)cc1 (stereo unspecified) | 8.23 µM |

Hello, the source for this data is PubChem BioAssay (NCI), in case you need it.
